- Test Name: Immunosuppressive activity against PHA-stimulated proliferation in rat T-lymphocytes assessed as cell viability at 100 uM after 6 days by [3H]thymidine incorporation method relative to control
- Format: functional
- Experimental Setup: read-out: Activity
// reported viability at 100 µM per item
Write it as a number; the unit % goes unstated.

Nc1ncnc2c1ncn2[C@@H]1OC[C@](O)(CO)[C@H]1O 91
O=c1ccn([C@@H]2OC[C@@](O)(CO)[C@H]2O)c(=O)[nH]1 90

Problem: Bench note: what viability at 100 µM did `Cc1cn([C@@H]2OC[C@@](O)(CO)[C@H]2O)c(=O)[nH]c1=O` show?
Result: 89
